- Test system: p38 MAPK
- protocol.details: Kinase profiling (radiometric filter-binding)
- Assay type: biochemical, human
- condition.set: fourth of four lines (Greek letter lost), 1 µM inhibitor
measured.quantity: Residual activity, % (%)
Give bare numbers, in %.

Give the reported value of Residual activity, % for this record: "N=C(N)NCCC[C@@H](NC(=O)CNC(=O)[C@@H](CCCNC(=N)N)NC(=O)[C@@H](CCCNC(=N)N)NC(=O)CCCCCCCNCc1nc2c(sc3cc(Br)cnc32)c(=O)[nH]1)C(=O)N[C@H](CCCCN)C(N)=O" 116

====

Give measured remaining activity at 1 µM for each item. Keep answers brief.
- study.system: CHK2 (Homo sapiens, UniProt O96017)
- Sequence (O96017 whole entry): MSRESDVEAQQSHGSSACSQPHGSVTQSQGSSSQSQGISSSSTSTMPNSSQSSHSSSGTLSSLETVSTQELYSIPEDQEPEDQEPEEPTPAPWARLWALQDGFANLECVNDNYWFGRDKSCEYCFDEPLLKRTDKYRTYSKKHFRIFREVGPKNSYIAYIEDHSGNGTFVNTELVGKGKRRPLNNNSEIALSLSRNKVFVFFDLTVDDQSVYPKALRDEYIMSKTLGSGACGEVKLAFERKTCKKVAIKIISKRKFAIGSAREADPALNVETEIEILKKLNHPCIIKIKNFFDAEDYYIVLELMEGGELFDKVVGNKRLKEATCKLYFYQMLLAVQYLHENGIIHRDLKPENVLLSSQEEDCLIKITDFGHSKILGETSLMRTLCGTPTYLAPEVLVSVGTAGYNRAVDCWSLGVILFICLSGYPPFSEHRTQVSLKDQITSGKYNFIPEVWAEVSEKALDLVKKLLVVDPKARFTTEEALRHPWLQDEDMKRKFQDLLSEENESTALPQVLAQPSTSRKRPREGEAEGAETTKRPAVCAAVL
- protocol.details: Kinase profiling (radiometric filter-binding)
- Type: biochemical
- condition.set: CHK2, 1 µM inhibitor; read-out: Residual activity, %
Square brackets hold non-standard residues; d marks the D form. Peptide text beside a SMILES is read from it. * marks the point of attachment. X3 = O=C(CCCCCNCc1nc2c(sc3cc(Br)cnc32)c(=O)[nH]1)*
Give bare numbers, in %.

As a guide, the following entries are already answered.
compound	study.system	remaining activity at 1 µM (%)
N=C(N)NCCC[C@@H](NC(=O)CNC(=O)[C@@H](CCCNC(=N)N)NC(=O)[C@@H](CCCNC(=N)N)NC(=O)CCCCCCCNCc1nc2c(sc3ccc(Br)cc32)c(=O)[nH]1)C(=O)N[C@H](CCCCN)C(N)=O	CHK2 (Homo sapiens, UniProt O96017)	103
N=C(N)NCCC[C@@H](NC(=O)CCCCCNC(=O)Cn1cnc2c(I)c(I)c(I)c(I)c21)C(=O)N[C@H](CCCNC(=N)N)C(=O)N[C@H](CCCNC(=N)N)C(=O)N[C@H](CCCNC(=N)N)C(=O)N[C@H](CCCNC(=N)N)C(=O)N[C@H](CCCNC(=N)N)C(=O)N[C@H](CCCCN)C(N)=O	CHK2 (Homo sapiens, UniProt O96017)	116
N=C(N)NCCC[C@@H](NC(=O)CNC(=O)[C@@H](CCCNC(=N)N)NC(=O)[C@@H](CCCNC(=N)N)NC(=O)CCCCCCCNCc1nc2c(sc3cc(Br)cnc32)c(=O)[nH]1)C(=O)N[C@H](CCCCN)C(N)=O	CHK2 (Homo sapiens, UniProt O96017)	107
N=C(N)NCCC[C@@H](NC(=O)CNC(=O)[C@@H](CCCNC(=N)N)NC(=O)[C@@H](CCCNC(=N)N)NC(=O)Cn1cc(CNCc2nc3c(sc4ccc(Br)cc43)c(=O)[nH]2)nn1)C(=O)N[C@H](CCCCN)C(N)=O	CHK2 (Homo sapiens, UniProt O96017)	52

Pending compound:
Please look at N=C(N)NCCC[C@@H](NC(=O)CCCCCNCc1nc2c(sc3cc(Br)cnc32)c(=O)[nH]1)C(=O)N[C@H](CCCNC(=N)N)C(=O)N[C@H](CCCNC(=N)N)C(=O)N[C@H](CCCNC(=N)N)C(=O)N[C@H](CCCNC(=N)N)C(=O)N[C@H](CCCNC(=N)N)C(=O)N[C@H](CCCCN)C(N)=O [ARC-3126, BPTP-Ahx-(D-Arg)6-D-Lys-NH2] (X3-[dR][dR][dR][dR][dR][dR][dK]-NH2) and tell me its recorded remaining activity at 1 µM on CHK2 (Homo sapiens, UniProt O96017). 76

The reported numbers originate from paper PMC8307404.
